- experimental system: HLA-A*2402 (Homo sapiens, UniProt P04439, D101N/D140Y/D185E/E176V/E190D/F33S/G103R/G107R/I119L/I121M/I306V/K335N/L105A/L180Q/L300P/N151K/N90K/Q86E/Q94H/R106L/R138H/R89G/T104I/T345S/V100E/W191G/Y123F)
- assay protocol: Class I peptide-binding assay, HLA-A*2402
- condition context: Table 19a, CEA-derived A24 binders
readout kind: IC50

-- ask # return recorded IC50 for input `H-LWWYNGQSL-OH`
-- reply 1460 nM

----------
- experimental system: HLA-A*0101 (Homo sapiens, UniProt P04439, A114D/A174V/A182V/D101N/D185E/E176A/E190D/L180R/Q94H/R68K/S129P/T187R/V100A/V91M/W191G)
- assay protocol: Class I peptide-binding assay, HLA-A*0101
- condition context: Table 18c, Mage2/3-derived A1 binders
readout kind: pIC50
Expect pIC50 as a plain number equal to -log10 of the molar concentration.

-- ask Using known records, supply pIC50 for `H-LTQEFVQENY-OH`
-- reply 7.02
